- experimental-target: endothelin receptors (TE 671 cells) (Homo sapiens, UniProt P25101)
- Sequence (P25101 21-427): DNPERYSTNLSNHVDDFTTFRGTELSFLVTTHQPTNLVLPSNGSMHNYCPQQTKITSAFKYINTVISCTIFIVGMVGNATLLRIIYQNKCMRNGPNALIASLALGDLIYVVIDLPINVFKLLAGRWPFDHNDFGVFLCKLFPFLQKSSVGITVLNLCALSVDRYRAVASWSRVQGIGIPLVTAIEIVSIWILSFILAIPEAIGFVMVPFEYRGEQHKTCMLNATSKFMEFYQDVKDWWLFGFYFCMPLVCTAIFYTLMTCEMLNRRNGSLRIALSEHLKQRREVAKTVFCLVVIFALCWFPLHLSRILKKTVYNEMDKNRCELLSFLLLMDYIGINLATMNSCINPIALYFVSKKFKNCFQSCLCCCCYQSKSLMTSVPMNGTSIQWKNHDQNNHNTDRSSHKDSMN
endpoint-label: IC50 (µM)
// units = µM; emit number, no label

Could you please provide reported IC50 for O=C(O)C1CCC2C(=O)NC(Cc3c[nH]c4ccccc34)C(=O)N12 (stereo not shown) ? Thanks!
22.5
